- target_under_test: D(2) dopamine receptor (Homo sapiens, UniProt P14416)
- Sequence (P14416 whole entry): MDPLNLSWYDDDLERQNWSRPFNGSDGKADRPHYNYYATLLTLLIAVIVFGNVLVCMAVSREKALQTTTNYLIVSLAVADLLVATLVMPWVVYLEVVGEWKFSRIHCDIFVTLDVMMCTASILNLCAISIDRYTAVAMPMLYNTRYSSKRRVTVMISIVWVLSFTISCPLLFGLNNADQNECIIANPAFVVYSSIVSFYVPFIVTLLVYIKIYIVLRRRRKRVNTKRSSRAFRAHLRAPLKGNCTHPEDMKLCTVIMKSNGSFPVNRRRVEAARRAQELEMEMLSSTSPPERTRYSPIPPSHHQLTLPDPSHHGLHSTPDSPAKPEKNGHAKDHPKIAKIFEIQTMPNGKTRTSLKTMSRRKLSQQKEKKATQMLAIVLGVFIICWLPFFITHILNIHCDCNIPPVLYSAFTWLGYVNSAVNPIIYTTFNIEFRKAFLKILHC
- experiment_summary: Agonist activity at human dopamine D2L receptor expressed in CHO cell membranes after 1 hr by [35S]-GTPgammaS binding assay
- Assay type: functional
- condition_details: read-out: EC50
value_kind: EC50

// solved cases for EC50 follow
CCCN1CCC[C@@H]2Cc3nc(N)ncc3C[C@H]21
45 nM
CCCN(CCCC(=O)OCC)CCc1cccc2c1CC(=O)N2
55 nM
CCCN(CCCNC(=O)CCCCCCC(=O)NCCCN(CCC)CCc1cccc2c1CC(=O)N2)CCc1cccc2c1CC(=O)N2
22 nM
CCCN(CCCNC(=O)CCC(=O)O)CCc1cccc2c1CC(=O)N2
4680 nM

# value of EC50, D(2) dopamine receptor (Homo sapiens, UniProt P14416), item CCCN(CCCNC(=O)OC(C)(C)C)CCc1cccc2c1CC(=O)N2 = 219 nM

====

- target_under_test: UniProt:P14416
- experiment_summary: Agonist activity at human dopamine D2L receptor expressed in CHO cell membranes after 1 hr by [35S]-GTPgammaS binding assay relative to 100 uM quinelorane
- Assay type: functional
value_kind: Emax (%)
// return numeric value only (unit: %, not printed)

Below, each entry is followed by its recorded Emax result.
CCCN(CCCNC(=O)CCCCCCC(=O)NCCCN(CCC)CCc1cccc2c1CC(=O)N2)CCc1cccc2c1CC(=O)N2
99
CCCN(CCCNC(=O)OC(C)(C)C)CCc1cccc2c1CC(=O)N2
69
CCCNCCc1cccc2c1CC(=O)N2
92
CCCN(CCCC(=O)OCC)CCc1cccc2c1CC(=O)N2
90
CCCN(CCCNC(=O)CCC(=O)O)CCc1cccc2c1CC(=O)N2
72
CCCN(CCCNC(=O)OC(C)(C)C)CCc1cccc2c1CC(=O)N2CCCNC(=O)OC(C)(C)C
45

# context switch: different molecule, same Emax
UniProt:P14416 data for CCCN(CCCNC(=O)CCCCCCCCCCC(=O)NCCCN(CCC)CCc1cccc2c1CC(=O)N2)CCc1cccc2c1CC(=O)N2 ; its Emax: 85

====

- target_under_test: D(2) dopamine receptor (Homo sapiens, UniProt P14416)
- experiment_summary: Agonist activity at human dopamine D2L receptor expressed in CHO cell membranes after 1 hr by [35S]-GTPgammaS binding assay
- Format: functional
- condition_details: read-out: EC50
Please use yes for EC50 under 10 nM and no for everything else, ties included.

Use these answered entries as a reference point.
CCCN(CCCNC(=O)CCCCCCCCCCC(=O)NCCCN(CCC)CCc1cccc2c1CC(=O)N2)CCc1cccc2c1CC(=O)N2
yes
CCCN(CCCNC(=O)CCC(=O)NCCCN(CCC)CCc1cccc2c1CC(=O)N2)CCc1cccc2c1CC(=O)N2
no
CCCCCCCCCC(=O)NCCCN(CCC)CCc1cccc2c1CC(=O)N2
no
CCCN(CCCNC(=O)CCCCCCCCCCCCCCC(=O)NCCCN(CCC)CCc1cccc2c1CC(=O)N2)CCc1cccc2c1CC(=O)N2
yes
CCCN(CCCNC(=O)CCCCCCCCCCCCCCCCCCC(=O)NCCCN(CCC)CCc1cccc2c1CC(=O)N2)CCc1cccc2c1CC(=O)N2
no
CCCNCCc1cccc2c1CC(=O)N2
no

Now turn to the next compound.
Does the reported EC50 of the following compound sit strictly below 10 nM? CCCN(CCCNC(=O)OC(C)(C)C)CCc1cccc2c1CC(=O)N2CCCNC(=O)OC(C)(C)C
no
